molecular target: PKR R510Q (Homo sapiens, UniProt P30613, R510Q); assay: PKR mutant assay (R510Q), AC50, LDH/NADH-coupled, absorbance at 340 nm; details: Table 4; AC50, enzyme assay; read-out: PK R510Q
Sequence (P30613 whole entry R510Q): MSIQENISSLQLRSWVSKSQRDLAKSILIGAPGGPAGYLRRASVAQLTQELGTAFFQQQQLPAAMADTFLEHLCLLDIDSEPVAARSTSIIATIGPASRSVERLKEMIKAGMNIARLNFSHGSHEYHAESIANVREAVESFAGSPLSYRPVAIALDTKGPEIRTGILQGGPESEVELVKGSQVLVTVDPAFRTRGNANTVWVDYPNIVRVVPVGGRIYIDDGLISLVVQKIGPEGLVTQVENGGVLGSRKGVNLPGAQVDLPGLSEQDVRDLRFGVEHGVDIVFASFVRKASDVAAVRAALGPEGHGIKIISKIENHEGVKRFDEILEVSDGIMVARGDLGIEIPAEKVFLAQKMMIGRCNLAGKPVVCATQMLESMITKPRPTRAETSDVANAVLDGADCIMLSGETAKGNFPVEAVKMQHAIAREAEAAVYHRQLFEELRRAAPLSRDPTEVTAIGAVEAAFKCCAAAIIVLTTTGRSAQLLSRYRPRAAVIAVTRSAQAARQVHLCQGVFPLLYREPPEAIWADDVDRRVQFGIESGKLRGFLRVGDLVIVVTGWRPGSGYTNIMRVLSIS
pEC50: −log10 of the molar value.
readout.name: pEC50

Past entries and their recorded results:
INSERT INTO results (molecule, readout_name, observed_value) VALUES
  ('Cn1c2nc(Cc3nnco3)sc2c2cnn(Cc3cccc4[nH]ncc34)c(=O)c21', 'pEC50', '6.10 to 6.52'),
  ('Cn1c2nc(Cn3cncn3)sc2c2cnn(Cc3cccc4[nH]ncc34)c(=O)c21', 'pEC50', '6.10 to 6.52'),
  ('Cn1c2nc(Cc3cn[nH]n3)sc2c2cnn(Cc3cccc(OC(F)(F)F)c3F)c(=O)c21', 'pEC50', '> 6.52');

Ask: Answer with the recorded pEC50 for the molecule listed here: Cn1c2nc(Cc3cc[nH]n3)sc2c2cnn(Cc3ccc4scnc4c3)c(=O)c21
Reply: > 6.52

Ask: Answer with the recorded pEC50 for the molecule listed here: Cn1c2nc(Cc3nc[nH]n3)sc2c2cnn(Cc3cccc4[nH]ncc34)c(=O)c21
Reply: > 6.52

Ask: Answer with the recorded pEC50 for the molecule listed here: Cn1ncc2cc(Cn3ncc4c5sc(Cc6cc[nH]n6)nc5n(C)c4c3=O)ccc21
Reply: > 6.52

Ask: Answer with the recorded pEC50 for the molecule listed here: Cn1c2nc(Cc3cc[nH]n3)sc2c2cnn(CCc3cscn3)c(=O)c21
Reply: > 6.52

Ask: Answer with the recorded pEC50 for the molecule listed here: Cn1c2nc(Cc3cscn3)sc2c2cnn(Cc3cccc4[nH]ncc34)c(=O)c21
Reply: > 6.52

----------
biological target: wild type PKR (Homo sapiens, UniProt P30613); assay: Cell based ATP assay in purified red blood cells (Cell-Titer-Glo); parameters: endogenous in cells; host or cells: purified red blood cells from healthy volunteers; conditions: Table 2; RBCs, overnight at 37° C., ATP levels
Sequence (P30613 whole entry): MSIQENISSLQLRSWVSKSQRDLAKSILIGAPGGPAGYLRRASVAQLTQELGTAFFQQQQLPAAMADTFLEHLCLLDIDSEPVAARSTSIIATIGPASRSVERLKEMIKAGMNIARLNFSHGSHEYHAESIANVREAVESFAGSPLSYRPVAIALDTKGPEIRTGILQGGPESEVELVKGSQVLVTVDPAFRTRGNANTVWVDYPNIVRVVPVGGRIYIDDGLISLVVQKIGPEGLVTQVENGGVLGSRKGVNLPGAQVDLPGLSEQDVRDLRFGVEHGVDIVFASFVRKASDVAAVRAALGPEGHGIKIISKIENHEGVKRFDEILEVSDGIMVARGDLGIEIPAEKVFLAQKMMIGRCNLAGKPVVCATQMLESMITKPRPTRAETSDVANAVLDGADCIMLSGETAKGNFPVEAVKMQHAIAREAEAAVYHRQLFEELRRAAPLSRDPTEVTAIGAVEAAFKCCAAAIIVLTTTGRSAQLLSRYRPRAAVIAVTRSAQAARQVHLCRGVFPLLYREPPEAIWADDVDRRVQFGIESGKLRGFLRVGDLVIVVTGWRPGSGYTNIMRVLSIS
readout.name: AC50

INSERT INTO measurements (molecule, observed_value) VALUES
  ('Cn1c2nc(C(O)c3ccccn3)sc2c2cnn(Cc3cccc4[nH]ncc34)c(=O)c21 (centres unmarked)', '≤ 1 µM'),
  ('Cn1c2nc(C#N)sc2c2cnn(Cc3cccc(N)n3)c(=O)c21', '≤ 1 µM'),
  ('CC(=O)NC(c1cc[nH]n1)c1nc2c(s1)c1cnn(Cc3cccc4[nH]ncc34)c(=O)c1n2C (centres unmarked)', '> 1 µM');

Ask: Answer with the recorded AC50 for the molecule listed here: Cn1c2nc(C#N)sc2c2cnn(Cc3csc(N)n3)c(=O)c21
Reply: > 1 µM

Ask: Answer with the recorded AC50 for the molecule listed here: CC(=O)c1cccc(Cn2ncc3c4sc(C)nc4n(C)c3c2=O)c1
Reply: > 1 µM

Ask: Answer with the recorded AC50 for the molecule listed here: Cn1c2nc(Cc3cncnc3)sc2c2cnn(Cc3cccc4[nH]ncc34)c(=O)c21
Reply: ≤ 1 µM

Ask: Answer with the recorded AC50 for the molecule listed here: Cn1c2nc(Cc3ccccc3)sc2c2cnn(Cc3cccc4[nH]ncc34)c(=O)c21
Reply: ≤ 1 µM

Ask: Answer with the recorded AC50 for the molecule listed here: CNc1cccc(Cn2ncc3c4sc(C)nc4n(C)c3c2=O)c1
Reply: ≤ 1 µM

----------
target: PKR K410E (Homo sapiens, UniProt P30613, K410E); assay: PKR mutant assay (K410E), AC50, LDH/NADH-coupled, absorbance at 340 nm; type: biochemical; settings: Table 2; enzyme assay
Sequence (P30613 whole entry K410E): as the sequence (P30613 whole entry R510Q) above, with K410E, Q510R counted along it
readout.name: AC50

INSERT INTO results (molecule, system_name, observed_value) VALUES
  ('COC(=O)C(c1ccccc1)c1nc2c(s1)c1cnn(Cc3cccc4[nH]ncc34)c(=O)c1n2C (centres unmarked) [Compound 134]', 'PKR K410E (Homo sapiens, UniProt P30613, K410E)', '< 0.3 µM'),
  ('Cc1nc2c(s1)c1cnn(Cc3cccc(F)n3)c(=O)c1n2C [Compound 28]', 'PKR K410E (Homo sapiens, UniProt P30613, K410E)', '> 0.8 µM'),
  ('Cn1c2nc([S+](C)[O-])sc2c2cnn(Cc3cnc(N)s3)c(=O)c21 (centres unmarked) [Compound 101]', 'PKR K410E (Homo sapiens, UniProt P30613, K410E)', '> 0.8 µM'),
  ('Cn1c2nc(C(O)c3cc[nH]n3)sc2c2cnn(Cc3cccc4[nH]ncc34)c(=O)c21 (centres unmarked) [Compound 148]', 'PKR K410E (Homo sapiens, UniProt P30613, K410E)', '< 0.3 µM');

Ask: // fetch AC50; item: COc1cccc(Cn2ncc3c4sc(C(C)=O)nc4n(C)c3c2=O)c1 [Compound 62] ; system: PKR K410E (Homo sapiens, UniProt P30613, K410E)
Reply: < 0.3 µM

Ask: // fetch AC50; item: CSc1nc2c(s1)c1cnn(Cc3ccc(S(N)(=O)=O)cc3)c(=O)c1n2C [Compound 116] ; system: PKR K410E (Homo sapiens, UniProt P30613, K410E)
Reply: > 0.8 µM

Ask: // fetch AC50; item: COc1cccc(Cn2ncc3c4sc(C(=O)c5cccc(O)c5)nc4n(C)c3c2=O)c1 [Compound 55] ; system: PKR K410E (Homo sapiens, UniProt P30613, K410E)
Reply: > 0.8 µM

Ask: // fetch AC50; item: COc1cccc(Cn2ncc3c4sc(C=O)nc4n(C)c3c2=O)c1 [Compound 38] ; system: PKR K410E (Homo sapiens, UniProt P30613, K410E)
Reply: < 0.3 µM

----------
target: PKR K410E (Homo sapiens, UniProt P30613, K410E); test: PKR mutant assay (K410E), AC50, LDH/NADH-coupled, absorbance at 340 nm; assay type: biochemical; conditions: Table 2; enzyme assay
readout.name: AC50

INSERT INTO assay_data (compound, observed_value) VALUES
  ('CCOC(=O)c1scnc1Cc1nc2c(s1)c1cnn(Cc3cccc4[nH]ncc34)c(=O)c1n2C', '> 0.8 µM'),
  ('COc1cccc(Cn2ncc3c4sc(I)nc4n(C)c3c2=O)c1', '0.301 to 0.8 µM'),
  ('Cn1c2nc(S(=O)(=O)Cc3ccccc3)sc2c2cnn(Cc3cccc4[nH]ncc34)c(=O)c21', '0.301 to 0.8 µM'),
  ('COc1cccc(Cn2ncc3c4sc(Cc5ccc(C)cc5)nc4n(C)c3c2=O)c1', '< 0.3 µM'),
  ('Cn1c2nc([S+](C)[O-])sc2c2cnn(Cc3ccc4ccccc4n3)c(=O)c21 (centres unmarked)', '< 0.3 µM'),
  ('Cc1nc2c(s1)c1cnn(Cc3ccc4nn[nH]c4c3)c(=O)c1n2C', '> 0.8 µM'),
  ('Cc1nc2c(s1)c1cnn(Cc3cccc(CN)c3)c(=O)c1n2C', '< 0.3 µM');

Now let's try a different one.
Ask: // fetch AC50; item: Cn1ccc(Cc2nc3c(s2)c2cnn(Cc4cccc5[nH]ncc45)c(=O)c2n3C)n1 ; system: PKR K410E (Homo sapiens, UniProt P30613, K410E)
Reply: < 0.3 µM

----------
Recorded AC50 values for a group of molecules are listed next.
molecular target: PKR K410E (Homo sapiens, UniProt P30613, K410E); test: PKR mutant assay (K410E), AC50, LDH/NADH-coupled, absorbance at 340 nm; format: biochemical; details: Table 2; enzyme assay

Ask: Answer with the recorded AC50 for the molecule listed here: COc1cccc(Cn2ncc3c4scnc4n(C)c3c2=O)c1
Reply: 301 to 800 nM

Ask: Answer with the recorded AC50 for the molecule listed here: Cn1c2nc(Cc3cccc(C(N)=O)c3)sc2c2cnn(Cc3cccc4[nH]ncc34)c(=O)c21
Reply: < 300 nM

Ask: Answer with the recorded AC50 for the molecule listed here: COc1cccc(Cn2ncc3c4sc(Cc5ccccc5)nc4n(C)c3c2=O)c1
Reply: < 300 nM

Ask: Answer with the recorded AC50 for the molecule listed here: Cn1c2nc(CC(N)=O)sc2c2cnn(Cc3cccc4[nH]ncc34)c(=O)c21
Reply: < 300 nM

Ask: Answer with the recorded AC50 for the molecule listed here: Cn1c2nc([S+](C)[O-])sc2c2cnn(Cc3cccc(C(C)(C)O)c3)c(=O)c21 (centres unmarked)
Reply: < 300 nM

----------
target: wild type PKR (Homo sapiens); assay: Cell based ATP assay in purified red blood cells (Cell-Titer-Glo); parameters: endogenous in cells; host or cells: purified red blood cells from healthy volunteers; conditions: Table 2; RBCs, overnight at 37° C., ATP levels
Recorded AC50 values for a group of molecules are listed next.

Past entries and their recorded results:
INSERT INTO results (molecule, observed_value) VALUES
  ('COc1cccc(Cn2ncc3c4sc(Cc5ccccc5)nc4n(C)c3c2=O)c1', '≤ 1 µM'),
  ('COc1cccc(Cn2ncc3c4sc(Cc5ccc(C#N)cc5)nc4n(C)c3c2=O)c1', '≤ 1 µM'),
  ('Cn1c2nc(Cc3cnoc3)sc2c2cnn(Cc3cccc4[nH]ncc34)c(=O)c21', '> 1 µM');

Ask: Answer with the recorded AC50 for the molecule listed here: CC(c1ccccc1)c1nc2c(s1)c1cnn(Cc3cccc4c3cnn4C)c(=O)c1n2C (centres unmarked)
Reply: ≤ 1 µM

Ask: Answer with the recorded AC50 for the molecule listed here: COc1cccc(Cn2ncc3c4sc(I)nc4n(C)c3c2=O)c1
Reply: > 1 µM

Ask: Answer with the recorded AC50 for the molecule listed here: Cc1nc2c(s1)c1cnn(Cc3cccc(C(C)N)c3)c(=O)c1n2C (centres unmarked)
Reply: ≤ 1 µM

Ask: Answer with the recorded AC50 for the molecule listed here: Cn1c2nc([S+](C)[O-])sc2c2cnn(Cc3ccnc(N)c3)c(=O)c21 (centres unmarked)
Reply: ≤ 1 µM

Ask: Answer with the recorded AC50 for the molecule listed here: CNc1cccc(Cc2nc3c(s2)c2cnn(Cc4cccc5[nH]ncc45)c(=O)c2n3C)c1
Reply: ≤ 1 µM
